Target: α1AR (β-arrestin signaling) (Homo sapiens, UniProt P35348)
Construct: Full-length complementary DNAs of human GPCRs without stop codons were subcloned in frame with the tobacco etch virus (TEV) protease vector; expressed in transfected cells
Sequence (P35348 1-466): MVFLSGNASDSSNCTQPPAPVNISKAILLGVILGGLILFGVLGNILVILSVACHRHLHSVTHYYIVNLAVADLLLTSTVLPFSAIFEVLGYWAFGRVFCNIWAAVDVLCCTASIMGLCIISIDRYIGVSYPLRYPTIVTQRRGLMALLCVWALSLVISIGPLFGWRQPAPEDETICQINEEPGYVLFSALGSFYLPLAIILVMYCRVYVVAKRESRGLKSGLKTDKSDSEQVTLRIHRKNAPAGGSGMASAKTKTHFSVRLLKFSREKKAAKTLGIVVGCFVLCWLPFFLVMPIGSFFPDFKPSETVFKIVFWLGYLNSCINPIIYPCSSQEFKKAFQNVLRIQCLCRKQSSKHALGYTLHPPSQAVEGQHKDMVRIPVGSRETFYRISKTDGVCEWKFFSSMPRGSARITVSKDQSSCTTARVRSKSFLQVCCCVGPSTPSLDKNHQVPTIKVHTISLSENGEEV
Assay: α1AR/β-arrestin-2 LinkLight assay
Assay type: cell-based
Details: α1A-TEV/β-arrestin-pLuc cells, adrenergic agonist panel; Figure 3f; read-out: potency (rank order) in β-arrestin signaling
pEC50: −log10 of the molar value.

Molecule	pEC50
COc1ccc(OC)c(C(O)C(C)N)c1 (stereo not shown)	6.50
c1ccc(C2CC2)c(OCC2=NCCN2)c1	7.74
N=C(N)NC(=O)Cc1c(Cl)cccc1Cl	5.79
Brc1c(NC2=NCCN2)ccc2nccnc12	6.11
